Target sequence: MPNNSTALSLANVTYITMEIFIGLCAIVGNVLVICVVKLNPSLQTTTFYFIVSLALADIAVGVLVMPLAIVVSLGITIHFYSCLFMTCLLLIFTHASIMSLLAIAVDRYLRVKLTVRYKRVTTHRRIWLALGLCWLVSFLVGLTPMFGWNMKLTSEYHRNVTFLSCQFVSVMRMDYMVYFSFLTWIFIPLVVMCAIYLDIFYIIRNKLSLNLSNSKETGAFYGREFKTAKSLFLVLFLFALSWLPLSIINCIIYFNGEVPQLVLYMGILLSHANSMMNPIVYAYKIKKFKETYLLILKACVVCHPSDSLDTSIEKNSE
pKi: −log10 of the molar value.
recordedMetric: pKi

// below: answered compounds
compound	pKi
Cn1c(=O)c2c(nc3n2CCN(CCc2ccc(Cl)cc2)C3)n(C)c1=O	< 5.00
Cn1c(=O)c2c(nc3n2CCN(C2CCN(Cc4ccccc4)CC2)C3)n(C)c1=O	< 5.00
Cn1c(=O)c2c(nc3n2CCN(CCc2ccc(Cl)c(Cl)c2)C3)n(C)c1=O	4.82
COc1cccc2c1CC[C@H](N1CCn3c(nc4c3c(=O)n(C)c(=O)n4C)C1)C2	< 5.00
COc1cccc(CCN2CCn3c(nc4c3c(=O)n(C)c(=O)n4C)C2)c1	< 5.00
Cc1sc(-c2ccc(C(F)(F)F)cc2)nc1CN1CCn2c(nc3c2c(=O)n(C)c(=O)n3C)C1	< 5.00
COc1ccccc1CCN1CCn2c(nc3c2c(=O)n(C)c(=O)n3C)C1	< 5.00
Cn1c(=O)c2c(nc3n2CCN(CCOc2ccc(Cl)c(Cl)c2)C3)n(C)c1=O	< 5.00

Input line: Give the measured pKi of Cn1c(=O)c2c(nc3n2CCN(Cc2nocc2-c2ccccc2)C3)n(C)c1=O .
Output line: 5.06

Input line: Give the measured pKi of CC(CN1CCn2c(nc3c2c(=O)n(C)c(=O)n3C)C1)c1ccccc1 (stereo unspecified) .
Output line: < 5.00

Input line: Give the measured pKi of Cn1c(=O)c2c(nc3n2CCN(C2CCc4ccccc42)C3)n(C)c1=O (racemic) .
Output line: < 5.00

* * *

- subjectOfTest: UniProtKB P30542
- Sequence (P30542 whole entry): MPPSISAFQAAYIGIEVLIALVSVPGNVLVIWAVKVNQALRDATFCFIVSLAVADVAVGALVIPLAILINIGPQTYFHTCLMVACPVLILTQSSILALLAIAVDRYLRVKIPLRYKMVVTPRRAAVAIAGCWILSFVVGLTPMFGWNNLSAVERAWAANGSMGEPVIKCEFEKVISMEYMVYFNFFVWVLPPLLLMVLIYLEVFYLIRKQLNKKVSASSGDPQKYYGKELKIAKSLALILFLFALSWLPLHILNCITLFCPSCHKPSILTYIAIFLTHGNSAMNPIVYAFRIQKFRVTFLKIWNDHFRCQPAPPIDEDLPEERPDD
- assayText: Displacement of [3H]CCPA from human A1 receptor expressed in CHO cell membrane by liquid scintillation counting method
- Assay type: cell membranes
pKi: −log10 of the molar value.
# cutoff 6 applies to pKi; >= gives fulfilled, < gives not fulfilled

Here's what some known entries look like.
structureString	label
Cn1c(=O)c2c(nc3n2CCN(Cc2csc(-c4ccc(Cl)cc4)n2)C3)n(C)c1=O	fulfilled
Cn1c(=O)c2c(nc3n2CCN(CCCc2ccc(Cl)cc2)C3)n(C)c1=O	fulfilled
Cn1c(=O)c2c(nc3n2CCN(Cc2csc(-c4ccc(C(F)(F)F)cc4)n2)C3)n(C)c1=O	fulfilled
Cn1c(=O)c2c(nc3n2CCN(CCCc2cccc(Br)c2)C3)n(C)c1=O	not fulfilled
Cn1c(=O)c2c(nc3n2CCN(CCc2ccc(Cl)cc2Cl)C3)n(C)c1=O	not fulfilled

Turning now to a further molecule:
Input line: Is it the case that Cn1c(=O)c2c(nc3n2CCN([C@@H]2CCCc4ccccc42)C3)n(C)c1=O has pKi reaching or exceeding 6?
Output line: fulfilled

* * *

- subjectOfTest: Adenosine receptor A1 (Rattus norvegicus)
- assayText: Displacement of [3H]CCPA from A1 receptor in rat brain cortex membranes at 1.5 uM by liquid scintillation counting method
- Type: cell membranes
recordedMetric: Activity (%)
Use % as the unit, but write only the number.

// below: answered molecules
molecule	Activity [%]
Cn1c(=O)c2c(nc3n2CCN(C2CCc4ccccc42)C3)n(C)c1=O (racemic)	32
Cn1c(=O)c2c(nc3n2CCN(CCCc2cccc(Br)c2)C3)n(C)c1=O	17
COc1cccc(N2CCn3c(nc4c3c(=O)n(C)c(=O)n4C)C2)c1	16
Cn1c(=O)c2c(nc3n2CCN(CCn2cccc2)C3)n(C)c1=O	7
Cn1c(=O)c2c(nc3n2CCN(c2ccc(F)cc2)C3)n(C)c1=O	4

Input line: Give the measured Activity of Cn1c(=O)c2c(nc3n2CCN(CCc2ccccc2Br)C3)n(C)c1=O .
Output line: 10

Input line: Give the measured Activity of COc1ccc(Br)cc1CCN1CCn2c(nc3c2c(=O)n(C)c(=O)n3C)C1 .
Output line: 3

Input line: Give the measured Activity of COc1cccc(CCN2CCn3c(nc4c3c(=O)n(C)c(=O)n4C)C2)c1OC .
Output line: 5

* * *

- subjectOfTest: UniProt P27338
- Sequence (P27338 whole entry): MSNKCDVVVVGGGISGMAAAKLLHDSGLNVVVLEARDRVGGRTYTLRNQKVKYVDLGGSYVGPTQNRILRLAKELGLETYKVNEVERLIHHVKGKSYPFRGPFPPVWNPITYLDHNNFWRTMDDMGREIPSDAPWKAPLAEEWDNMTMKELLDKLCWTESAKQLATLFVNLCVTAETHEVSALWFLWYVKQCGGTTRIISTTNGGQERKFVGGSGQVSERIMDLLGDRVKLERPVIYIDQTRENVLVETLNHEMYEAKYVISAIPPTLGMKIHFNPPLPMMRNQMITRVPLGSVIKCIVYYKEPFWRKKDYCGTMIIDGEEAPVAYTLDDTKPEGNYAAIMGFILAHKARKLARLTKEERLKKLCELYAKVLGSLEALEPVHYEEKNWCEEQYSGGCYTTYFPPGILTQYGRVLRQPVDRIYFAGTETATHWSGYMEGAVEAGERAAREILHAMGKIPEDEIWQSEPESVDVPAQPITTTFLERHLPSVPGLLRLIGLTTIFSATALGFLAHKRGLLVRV
- assayText: Inhibition of recombinant human MAO-B expressed in baculovirus infected BTI insect cells at 10 uM preincubated for 30 mins followed by addition of p-tyramine as substrate measured over 45 mins by Amplex Red MAO assay relative to control
- measurementConditions: 0.75 h
Here, each record is paired with measured inhibition at 10 µM data.
Use % as the unit, but write only the number.

// below: answered compounds
structureString	inhibition at 10 µM, %
Cn1c(=O)c2c(nc3n2CCN(CCc2cccc(F)c2)C3)n(C)c1=O	35
COc1cccc(CCN2CCn3c(nc4c3c(=O)n(C)c(=O)n4C)C2)c1OC	1
Cn1c(=O)c2c(nc3n2CCN(CCCc2ccccc2)C3)n(C)c1=O	14
Cn1c(=O)c2c(nc3n2CCN(Cc2cn(-c4ccc(Cl)cc4)nn2)C3)n(C)c1=O	12

Input line: Entry Cn1c(=O)c2c(nc3n2CCN(CCc2ccccc2F)C3)n(C)c1=O , system UniProt P27338: what inhibition at 10 µM was measured?
Output line: 65

* * *

- subjectOfTest: Adenosine receptor A3 (Homo sapiens) (UniProt P0DMS8)
- Sequence (whole entry): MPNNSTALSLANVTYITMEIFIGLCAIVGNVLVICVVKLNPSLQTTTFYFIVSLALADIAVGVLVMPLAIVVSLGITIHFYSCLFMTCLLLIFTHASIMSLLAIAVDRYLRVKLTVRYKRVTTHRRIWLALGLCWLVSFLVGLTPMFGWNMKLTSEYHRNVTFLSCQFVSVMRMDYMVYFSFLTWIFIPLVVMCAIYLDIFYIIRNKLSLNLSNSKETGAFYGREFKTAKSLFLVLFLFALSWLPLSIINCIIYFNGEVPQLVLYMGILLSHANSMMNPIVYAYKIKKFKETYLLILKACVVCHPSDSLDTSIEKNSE
- assayText: Displacement of [3H]PSB-11 from human A3 receptor expressed in CHO cell membrane at 10 uM by liquid scintillation counting method relative to control relative to control
- Type: cell membranes
Here, each record is paired with measured Activity data.
Use % as the unit, but write only the number.

compound	measuredResult
COc1cccc(CCN2CCn3c(nc4c3c(=O)n(C)c(=O)n4C)C2)c1OC	43
Cn1c(=O)c2c(nc3n2CCN(CC(O)c2ccccc2)C3)n(C)c1=O (stereo not given)	11
Cn1c(=O)c2c(nc3n2CCN(CCc2cccs2)C3)n(C)c1=O	24
Cn1c(=O)c2c(nc3n2CCN(C2CCc4ccccc42)C3)n(C)c1=O (racemic)	45

As a next step, examine the compound that follows.
Input line: Give the measured Activity of Cc1cc(CN2CCn3c(nc4c3c(=O)n(C)c(=O)n4C)C2)n(C)n1 .
Output line: 5

* * *

- subjectOfTest: Adenosine receptor A2b (Homo sapiens, UniProt P29275)
- Sequence (P29275 whole entry): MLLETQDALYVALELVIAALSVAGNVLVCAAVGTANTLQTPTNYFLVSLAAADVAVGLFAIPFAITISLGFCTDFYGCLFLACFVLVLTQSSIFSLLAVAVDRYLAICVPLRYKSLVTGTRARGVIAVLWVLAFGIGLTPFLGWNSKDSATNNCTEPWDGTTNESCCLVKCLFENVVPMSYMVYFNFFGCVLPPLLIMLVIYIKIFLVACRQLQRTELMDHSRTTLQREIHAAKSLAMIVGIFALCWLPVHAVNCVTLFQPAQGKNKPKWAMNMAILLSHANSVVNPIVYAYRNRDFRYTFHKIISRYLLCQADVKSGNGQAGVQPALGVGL
- assayText: Displacement of [3H]PSB-603 from human A2B receptor expressed in CHO cell membrane
- Format: cell membranes
pKi: −log10 of the molar value.
recordedMetric: pKi

// below: answered compounds
compound	subjectOfTest	measuredResult
Cn1c(=O)c2c(nc3n2CCN(CC(O)c2ccccc2)C3)n(C)c1=O (stereo not given)	Adenosine receptor A2b (Homo sapiens, UniProt P29275)	< 6.00
Cn1c(=O)c2c(nc3n2CCN(CCc2ccc(Cl)c(Cl)c2)C3)n(C)c1=O	Adenosine receptor A2b (Homo sapiens, UniProt P29275)	< 6.00
Cn1c(=O)c2c(nc3n2CCN([C@H]2CCc4ccccc42)C3)n(C)c1=O	Adenosine receptor A2b (Homo sapiens, UniProt P29275)	< 6.52
Cn1c(=O)c2c(nc3n2CCN(C2CCc4ccccc42)C3)n(C)c1=O (racemic)	Adenosine receptor A2b (Homo sapiens, UniProt P29275)	< 6.52
Cn1c(=O)c2c(nc3n2CCN(c2ccc(F)cc2)C3)n(C)c1=O	Adenosine receptor A2b (Homo sapiens, UniProt P29275)	< 6.00
Cn1c(=O)c2c(nc3n2CCN(Cc2csc(-c4cccc(Cl)c4)n2)C3)n(C)c1=O	Adenosine receptor A2b (Homo sapiens, UniProt P29275)	< 6.00
Cn1c(=O)c2c(nc3n2CCN(CCc2ccc(F)c(F)c2)C3)n(C)c1=O	Adenosine receptor A2b (Homo sapiens, UniProt P29275)	< 6.00
Cn1c(=O)c2c(nc3n2CCN(C2CCN(Cc4ccccc4)CC2)C3)n(C)c1=O	Adenosine receptor A2b (Homo sapiens, UniProt P29275)	< 6.00

Input line: Give the measured pKi of COc1cccc(CCN2CCn3c(nc4c3c(=O)n(C)c(=O)n4C)C2)c1 .
Output line: < 6.00

Input line: Give the measured pKi of Cn1c(=O)c2c(nc3n2CCN(CCCc2ccccc2)C3)n(C)c1=O .
Output line: < 6.52

Just for reference, ChEMBL document CHEMBL4428125 is where these values come from.
